List of Pm values.
# ASSAY COMMENT: Permeability of the compound using immobilized artificial membrane
# Assay type: physicochemical

The following compounds have reported results that may help.
CCN(CC)C(=O)c1cc(-c2ccccc2I)c2ccccc2n1; 0.67
CCC(C)N(C)C(=O)c1cc2ccccc2c(-c2ccccc2Cl)n1 (stereo not drawn); 0.64

// next item, Pm requested
Data request: Field request: Pm | item: O=C(c1cc(-c2ccccc2)c2cc(F)ccc2n1)N1CCOCC1
Data returned: 0.25

Value source: ChEMBL document CHEMBL3217571
